test: self-splicing fitness, log relative to wild type (ln ratio); higher = more splicing; Tetrahymena group I intron in knt gene, E. coli kanamycin selection, DiMSum; sequences stand for … in CUCUCU…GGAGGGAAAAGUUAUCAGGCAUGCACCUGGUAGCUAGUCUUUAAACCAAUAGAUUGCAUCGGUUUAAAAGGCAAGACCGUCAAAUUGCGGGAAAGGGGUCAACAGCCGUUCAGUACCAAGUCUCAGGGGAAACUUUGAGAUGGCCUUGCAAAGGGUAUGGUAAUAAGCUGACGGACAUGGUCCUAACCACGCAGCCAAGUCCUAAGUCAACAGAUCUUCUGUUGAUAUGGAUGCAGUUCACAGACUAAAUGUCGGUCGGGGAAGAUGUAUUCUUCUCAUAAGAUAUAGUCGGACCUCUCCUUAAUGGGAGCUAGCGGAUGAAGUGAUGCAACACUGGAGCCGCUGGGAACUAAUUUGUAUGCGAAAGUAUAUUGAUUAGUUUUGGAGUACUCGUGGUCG; conditions: 37 °C;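 note: selection with 25 µg/mL kanamycin versus none on LB agar overnight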
Below, each entry is listed alongside its reported self-splicing fitness (ln).
Number only, please.

Previously resolved entries follow.
[
  {
    "RECORD SEQUENCE": "CGUCAGCAAUAUUACGUAGG",
    "self-splicing fitness (ln)": 0.23
  },
  {
    "RECORD SEQUENCE": "CAGUAGCAAUAUUACGCUCU",
    "self-splicing fitness (ln)": -0.957
  }
]

Exercise: Check the records and state self-splicing fitness (ln) for `AUUUAGCAAUAUUACGUGAG`
Solution: -0.846

Exercise: Note self-splicing fitness (ln) for the sequence shown: `UCGCAGCAAUAUUACGGAUU`
Solution: -2.51

Exercise: Return reported self-splicing fitness (ln). Input sequence: `UUGGAGCAAUAUUACGGAAA`
Solution: -1.64

Exercise: Please give the documented self-splicing fitness (ln) of `GUUUAGCAAUAUUACGUGUU`
Solution: -2.35

Exercise: # return recorded self-splicing fitness (ln) for input `UACGAGCAAUAUUACGAGUA`
Solution: -2.52
